Where do the numbers come from? From ChEMBL document CHEMBL1138891.

# protocolText: Stability in human liver microsome after 60 mins
# Type: ADME
# reportedConditions: liver microsomes, read-out: Stability
parameterMeasured: remaining at 1 h (%)
Reply numerically in %, unit not repeated.

Enquiry: For c1cc2c3c(cccc3c1)C(N1CCC(c3c[nH]c4ncccc34)CC1)C2 (stereo unspecified) , what is its reported remaining at 1 h?
Return: 14

* * *

# protocolText: Half life in human liver microsomes
# Type: ADME, Microsome
parameterMeasured: half-life (min)
Express the result in min but write the number alone.

Enquiry: What value of half-life has been reported for the following compound? c1cc2c3c(cccc3c1)C(N1CCC(c3c[nH]c4ncccc34)CC1)C2 (stereo unspecified)
Return: 15
